Reference source: patent US20210238260

biological target: Factor X (FX) zymogen, active site titrated and DFP/EGR-cmk treated, P00742
Sequence (P00742 whole entry, looked up): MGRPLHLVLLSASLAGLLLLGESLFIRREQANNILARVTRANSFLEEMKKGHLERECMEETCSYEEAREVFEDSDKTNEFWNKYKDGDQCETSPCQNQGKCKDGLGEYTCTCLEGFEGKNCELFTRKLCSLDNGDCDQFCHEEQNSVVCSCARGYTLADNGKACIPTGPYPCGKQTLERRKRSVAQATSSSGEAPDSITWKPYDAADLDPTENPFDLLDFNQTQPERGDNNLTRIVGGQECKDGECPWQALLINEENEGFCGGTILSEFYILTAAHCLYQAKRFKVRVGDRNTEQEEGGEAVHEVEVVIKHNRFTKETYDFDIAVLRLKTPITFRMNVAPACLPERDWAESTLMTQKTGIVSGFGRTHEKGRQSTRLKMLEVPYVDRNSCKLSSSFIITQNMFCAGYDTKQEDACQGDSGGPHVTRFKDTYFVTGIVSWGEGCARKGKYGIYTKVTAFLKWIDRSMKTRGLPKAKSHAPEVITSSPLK
quantity-measured: % of WT kcat/KM (against recombinant Catalyst Biosciences WT FIXa) (%)
Please state the figure in %; there is no need to write the unit.

For this protein ( FIXa-K228N/K247N/N249S/R318Y/R338E/T343R/E410N (activated Factor IX variant, mature FIX numbering) (protein) chain 1: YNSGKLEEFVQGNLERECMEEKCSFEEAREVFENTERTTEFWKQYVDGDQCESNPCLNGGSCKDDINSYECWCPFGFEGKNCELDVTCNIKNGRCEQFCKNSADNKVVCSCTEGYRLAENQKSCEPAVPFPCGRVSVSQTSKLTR chain 2: VVGGEDAKPGQFPWQVVLNGKVDAFCGGSIVNEKWIVTAAHCVETGVNITVVAGEHNIEETEHTEQNRSVIRIIPHHNYNAAINKYNHDIALLELDEPLVLNSYVTPICIADKEYTNIFLKFGSGYVSGWGRVFHKGYSALVLQYLRVPLVDRATCLESTKFRIYNNMFCAGFHEGGRDSCQGDSGGPHVTEVEGTSFLTGIISWGEECAMKGKYGIYTKVSRYVNWIKNKTKLT ), measured % of WT kcat/KM (against recombinant Catalyst Biosciences WT FIXa) is 278
